Could you please report measured pIC50 for the items listed next?
- EXPERIMENTAL TARGET: full-length proMMP9(1-707) (SEQ ID NO:1), activation by catalytic MMP3 (Homo sapiens, UniProt P14780, R574P)
- Construct: E. coli (MMP3)
- Sequence (P14780 20-707 R574P): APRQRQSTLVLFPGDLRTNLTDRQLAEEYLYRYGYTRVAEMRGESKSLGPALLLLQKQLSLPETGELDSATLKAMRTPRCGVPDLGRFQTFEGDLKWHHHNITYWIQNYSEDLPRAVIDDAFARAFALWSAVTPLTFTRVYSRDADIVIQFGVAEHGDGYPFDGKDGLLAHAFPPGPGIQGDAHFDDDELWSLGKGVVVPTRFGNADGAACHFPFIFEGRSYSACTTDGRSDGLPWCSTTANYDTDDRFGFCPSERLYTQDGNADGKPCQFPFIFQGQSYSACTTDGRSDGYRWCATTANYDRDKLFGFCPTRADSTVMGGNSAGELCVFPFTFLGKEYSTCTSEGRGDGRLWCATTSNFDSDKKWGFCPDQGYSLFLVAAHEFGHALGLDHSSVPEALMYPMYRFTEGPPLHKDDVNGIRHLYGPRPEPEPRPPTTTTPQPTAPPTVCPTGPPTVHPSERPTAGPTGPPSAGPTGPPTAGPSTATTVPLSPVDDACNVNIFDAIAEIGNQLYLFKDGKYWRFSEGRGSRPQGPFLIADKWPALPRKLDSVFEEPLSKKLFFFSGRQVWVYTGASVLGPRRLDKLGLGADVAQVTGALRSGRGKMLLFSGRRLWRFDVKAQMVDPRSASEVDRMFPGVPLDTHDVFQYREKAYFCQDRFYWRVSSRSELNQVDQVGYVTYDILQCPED
- METHOD: proMMP9/MMP3 P126 Activation Assay
Answers are plain numbers, as −log10 of the molar value.

Example cases with answers are listed next.
[[record]]
compound = "COc1ccc(C(N)=O)cc1Nc1nc(-c2ccc(N3CCN(C)CC3)nc2)cs1"
val = 6.08

[[record]]
compound = "CC(C)Oc1ccc(S(N)(=O)=O)cc1Nc1nc(-c2ccc(C3CCNCC3)nc2)cs1"
val = 6.89

[[record]]
compound = "CC(C)Oc1ccc(C#N)cc1Nc1nc(-c2cccnc2)cs1"
val = 5.49

[[record]]
compound = "CC(C)Oc1ccc(S(N)(=O)=O)cc1Nc1nc(-c2ccc(N3CCC(CO)CC3)nc2)cs1"
val = 6.47

[[record]]
compound = "COCCCN(C)c1ccc(-c2csc(Nc3cc(S(N)(=O)=O)ccc3OC(C)C)n2)cn1"
val = 6.64

[[record]]
compound = "CC(C)Oc1ccc(S(N)(=O)=O)cc1Nc1nc(-c2ccc(C(=O)N(C)CCN(C)C)nc2)cs1"
val = 6.01


Each compound below has a recorded value; state its pIC50.
1. CC(C)Oc1ccc(S(N)(=O)=O)cc1Nc1nc(-c2ccc(C(=O)NC3CCN(C)CC3)nc2)cs1
2. CC(C)Oc1ccc(S(N)(=O)=O)cc1Nc1nc(-c2ccc(C(=O)NC3CCOCC3)nc2)cs1
3. CC(C)Oc1ccc(S(N)(=O)=O)cc1Nc1nc(-c2ccnc(N3CCN(C)CC3)c2)cs1
4. CC(=O)N1CCN(c2ccc(-c3csc(Nc4cc(S(N)(=O)=O)ccc4OC(C)C)n3)cn2)CC1
5. NC(=O)c1ccc(OC(F)(F)F)c(Nc2nc(-c3ccnc(Cl)c3)cs2)c1
6. CC(C)Oc1ccc(S(N)(=O)=O)cc1Nc1nc(-c2ccc(NCC3CC3)nc2)cs1

Result:
6.38
6.23
6.96
6.68
5.96
6.21

Each compound below has a recorded value; state its pIC50.
1. CC(C)Oc1ccc(S(N)(=O)=O)cc1Nc1nc(-c2ccc(N3CCn4ccnc4C3)nc2)cs1
2. CC(C)Oc1ccc(S(N)(=O)=O)cc1Nc1nc(-c2ccc(C(=O)N3CCN(C(=O)OC(C)(C)C)CC3)nc2)cs1
3. CC(C)Oc1ccc(S(N)(=O)=O)cc1Nc1nc(-c2ccc(C(=O)NCC3CCOCC3)nc2)cs1
4. COCCCc1ccc(-c2csc(Nc3cc(S(N)(=O)=O)ccc3OC(C)C)n2)cn1
5. CC(C)Oc1ccc(S(N)(=O)=O)cc1Nc1nc(-c2ccc(N3CCC(N(C)C)CC3)nc2)cs1
6. CC(C)Oc1ccc(S(N)(=O)=O)cc1Nc1nc(-c2ccc(N3CCC(O)CC3)nc2)cs1

Result:
[6.43, 5.43, 6.19, 6.28, 7.23, 6.47]

Each compound below has a recorded value; state its pIC50.
1. CC(C)Oc1ccc(C(N)=O)cc1Nc1nc(-c2ccc(Cl)nc2)cs1
2. CC(C)Oc1ccc(S(N)(=O)=O)cc1Nc1nc(-c2ccc(N3C[C@@H](C)N[C@@H](C)C3)nc2)cs1

Result:
1: 6.17; 2: 6.89

Each compound below has a recorded value; state its pIC50.
1. CC(C)Oc1ccc(C(N)=O)cc1Nc1nc(-c2ccnc(Cl)c2)cs1
2. CC(C)Oc1ccc(S(N)(=O)=O)cc1Nc1nc(-c2ccc(C(=O)O)nc2)cs1
3. CN1CCN(c2ccc(-c3csc(Nc4cc(C(N)=O)ccc4OC(F)(F)F)n3)cn2)CC1
4. CCN1CCCN(C(=O)c2ccc(-c3csc(Nc4cc(S(N)(=O)=O)ccc4OC(C)C)n3)cn2)CC1
5. CC(C)Oc1ccc(S(N)(=O)=O)cc1Nc1nc(-c2ccc(N3CCNCC3)nc2)cs1
6. CN1CCN(c2cc(-c3csc(Nc4cc(C(N)=O)ccc4OC(F)(F)F)n3)ccn2)CC1

Result:
1: 6.22; 2: 6.43; 3: 6.19; 4: 6.00; 5: 7.14; 6: 5.64

Each compound below has a recorded value; state its pIC50.
1. CC(C)Oc1ccc(S(N)(=O)=O)cc1Nc1nc(-c2ccc(N3CCNC(C(N)=O)C3)nc2)cs1 (centres unmarked)
2. CC(C)Oc1ccc(S(N)(=O)=O)cc1Nc1nc(-c2ccc(N3CCN(C)CC3)nc2)cs1
3. CC(C)Oc1ccc(S(N)(=O)=O)cc1Nc1nc(-c2ccc(N(C)CCO)nc2)cs1

Result:
[6.68, 6.85, 6.96]
